Assay: Study of pharmacokinetics in rats
Type: in vivo
Conditions: rat, po; male SD rats, intragastrical gavage, 30 mg/kg, plasma
Output criterion met for records whose Tmax is lower than 4 h, criterion not met for records at or above 4 h.

Please indicate whether the reported Tmax of "[2H]C([2H])([2H])NC(=O)c1ccc(NC(=O)[C@H](CC)n2cc(OC)c(-c3cc(Cl)ccc3-n3cc(C(F)(F)F)nn3)cc2=O)cc1F" is strictly below 4 h.
criterion met

Hello, I'm reviewing records and need to know if Tmax of "[2H]C([2H])([2H])NC(=O)c1ccc(NC(=O)[C@H](CC)n2cc(OC([2H])([2H])[2H])c(-c3cc(Cl)ccc3-n3cc(C(F)(F)F)nn3)cc2=O)cc1F" is below 4 h. Could you check?
criterion not met

Consider the additional molecule presented here.
Would you kindly verify if Tmax of "[2H]C([2H])([2H])Oc1cn([C@@H](CC)C(=O)Nc2ccc(C(=O)NC)c(F)c2)c(=O)cc1-c1cc(Cl)ccc1-n1cc(C(F)(F)F)nn1" is strictly less than 4 h?
criterion met
